tested on: Staphylococcus aureus S13E; assay type: cell-based
I'd be grateful if you could share measured MIC for these entries.
Numbers only, in µg/mL.

{"compound": "CNC(CC(C)C)C(=O)NC1C(=O)NC(CC(N)=O)C(=O)NC2C(=O)NC3C(=O)NC(C(=O)NC(C(=O)O)c4cc(O)cc(O)c4-c4cc3ccc4O)C(OC3CC(C)(N)C(O)C(C)O3)c3ccc(c(Cl)c3)Oc3cc2cc(c3OC2OC(CO)C(O)C(O)C2OC2CC(C)(NCCCCCCCCc3ccccc3)C(O)C(C)O2)Oc2ccc(cc2Cl)C1O (centres unmarked)", "MIC [µg/mL]": 2}

Query: # query: MIC | item CN[C@H](CC(C)C)C(=O)N[C@H]1C(=O)N[C@@H](CC(N)=O)C(=O)N[C@H]2C(=O)N[C@H]3C(=O)N[C@H](C(=O)N[C@H](C(=O)O)c4cc(O)cc(O)c4-c4cc3ccc4O)[C@H](O[C@H]3C[C@](C)(N)[C@@H](O)[C@H](C)O3)c3ccc(c(Cl)c3)Oc3cc2cc(c3O[C@@H]2O[C@H](CO)[C@@H](O)[C@H](O)[C@H]2O[C@H]2C[C@](C)(NCc3ccc(Oc4ccc(Cl)cc4)c([N+](=O)[O-])c3)[C@@H](O)[C@H](C)O2)Oc2ccc(cc2Cl)[C@H]1O | system: Staphylococcus aureus S13E
Reply: 2

---

tested on: vancomycin-susceptible enterococci; assay: broth micro-dilution, mean geometric MIC; assay type: cell-based, Enterococcus faecium and Enterococcus faecalis; conditions: enterococci, 24-hour incubation
Hi there, I'd appreciate the recorded mean geometric MIC, Vancomycin Sensitive Strains for every entry that follows.
One number for each entry, in µg/mL.

Completed entries (count: 2):
{"molecule": "CC(C)CC(C(=O)NC1C(=O)NC(CC(N)=O)C(=O)NC2C(=O)NC3C(=O)NC(C(=O)NC(C(=O)O)c4cc(O)cc(O)c4-c4cc3ccc4O)C(OC3CC(C)(N)C(O)C(C)O3)c3ccc(c(Cl)c3)Oc3cc2cc(c3OC2OC(CO)C(O)C(O)C2OC2CC(C)(N)C(O)C(C)O2)Oc2ccc(cc2Cl)C1O)N(C)Cc1ccc(-c2ccccc2)cc1 (stereo not drawn) [Compound 250]", "numeric.readout": 0.44}
{"molecule": "CNC(CC(C)C)C(=O)NC1C(=O)NC(CC(N)=O)C(=O)NC2C(=O)NC3C(=O)NC(C(=O)NC(C(=O)O)c4cc(O)cc(O)c4-c4cc3ccc4O)C(OC3CC(C)(N)C(O)C(C)O3)c3ccc(c(Cl)c3)Oc3cc2cc(c3OC2OC(CO)C(O)C(O)C2OC2CC(C)(NCCCCCCCCc3ccccc3)C(O)C(C)O2)Oc2ccc(cc2Cl)C1O (stereo not drawn) [Compound 176]", "numeric.readout": 0.13}

Query: Endpoint output: mean geometric MIC, Vancomycin Sensitive Strains of CNC(CC(C)C)C(=O)NC1C(=O)NC(CC(N)=O)C(=O)NC2C(=O)NC3C(=O)NC(C(=O)NC(C(=O)O)c4cc(O)cc(O)c4-c4cc3ccc4O)C(OC3CC(C)(N)C(O)C(C)O3)c3ccc(c(Cl)c3)Oc3cc2cc(c3OC2OC(CO)C(O)C(O)C2OC2CC(C)(NCCCCC3CCCCC3)C(O)C(C)O2)Oc2ccc(cc2Cl)C1O (stereo not drawn) [Compound 205] . Value?
Reply: 0.036

---

What mean geometric MIC, Vancomycin Sensitive Strains was measured for each of the following?
test system: vancomycin-susceptible enterococci; experiment: broth micro-dilution, mean geometric MIC; format: cell-based, Enterococcus faecium and Enterococcus faecalis; details: enterococci, 24-hour incubation
Answers are plain numbers, in µg/mL.

{"molecule": "CCCCCCCCc1ccc(-c2ccc(CNC3(C)CC(OC4C(Oc5c6cc7cc5Oc5ccc(cc5Cl)C(OC5CC(C)(N)C(O)C(C)O5)C5NC(=O)C(NC(=O)C7NC(=O)C(CC(N)=O)NC(=O)C(NC(=O)C(CC(C)C)NC)C(O)c7ccc(c(Cl)c7)O6)c6ccc(O)c(c6)-c6c(O)cc(O)cc6C(C(=O)O)NC5=O)OC(CO)C(O)C4O)OC(C)C3O)cc2)cc1 (centres unmarked) [Compound 21]", "value.units": "µg/mL", "numeric.readout": 4.3}

Query: // query mean geometric MIC, Vancomycin Sensitive Strains value for entry CNC(CC(C)C)C(=O)NC1C(=O)NC(CC(N)=O)C(=O)NC2C(=O)NC3C(=O)NC(C(=O)NC(C(=O)O)c4cc(O)cc(O)c4-c4cc3ccc4O)C(OC3CC(C)(N)C(O)C(C)O3)c3ccc(c(Cl)c3)Oc3cc2cc(c3OC2OC(CO)C(O)C(O)C2OC2CC(C)(NCc3ccc(OS(C)(=O)=O)cc3)C(O)C(C)O2)Oc2ccc(cc2Cl)C1O (centres unmarked) [Compound 149]
Reply: 0.66

src = patent US5840684A
